Tested on: SK-OV-3 ovarian
assay-comment: NCI tumour cell line growth inhibition, 48 h
So I've got a bunch of compounds here, and I need their TGI values.

Enquiry: # lookup: TGI of CC1C/C(=N\N(C)C)C(C#N)(C#N)C1(C#N)C#N (configuration not stated)
Return: > 67.3 µM

Enquiry: Reported TGI for Cc1ccc2c(c1)[nH]c(=S)n2C=C1C(=O)CC(C)(C)CC1=O : what is it?
Return: > 100 µM

Enquiry: Any idea what TGI was measured for N#CC(C#N)=C(N)/C(C#N)=C/c1cc(O)c(O)c(Br)c1 ?
Return: > 100 µM

Enquiry: Look at this compound and give its reported TGI. CCOC(=O)c1c(C)n2c(=O)cc(C)c3c(OC(C)=O)c(OC(C)=O)cc1c32
Return: 87.5 µM

Enquiry: What does the data say about its TGI? Entry: c1ccc2c(c1)nc1n2CSC1
Return: > 100 µM

Enquiry: Could you tell me which TGI is on file for CC(=O)[O-].CC(=O)[O-].[NH2-].[Pt+2].c1ccncc1 ?
Return: > 100 µM

Enquiry: Requested field: TGI. Item: COC(=O)Nc1nc2cc3c(cc2s1)OCCO3
Return: > 50 µM

* * *

Tested on: T-47D breast
assay-comment: NCI tumour cell line growth inhibition, 48 h
experimental-endpoint: GI50

Enquiry: Form field: reported GI50 of CCOC(=O)C1=C(C)NC2SC(=O)/C(=C\c3ccccc3)N2C1c1ccccc1 (stereo unspecified)
Return: 38.2 µM

Enquiry: For the compound O=C1/C(=C\c2coc3ccccc3c2=O)c2ccccc2N1c1c(Cl)cccc1Cl , what GI50 is on record?
Return: 3.05 µM

Enquiry: Could you share which GI50 value was measured for O=C1C(Cl)=C(Nc2cccc(O)c2)C(=O)N1c1ccc(Cl)c(Cl)c1 ?
Return: 41 µM

Enquiry: // returns reported GI50 for input CN1CCN(Cc2ccc(NC(=O)c3ccc(C#N)c(C#Cc4cnc(N)c5ncccc45)c3)cc2C(F)(F)F)CC1
Return: 28.6 µM

Enquiry: Need GI50, item CC(=O)OC[C@]12CC[C@@H]([C@@H](C)C(N)=O)[C@@H]1[C@H]1CC[C@@H]3[C@@]4(C)CC[C@H](OC(C)=O)C(C)(C)[C@@H]4CC[C@@]3(C)[C@]1(C)CC2
Return: 2.91 µM

Enquiry: # GI50 lookup, item N#Cc1c(NC(=O)CN2CCOCC2)sc2c1CCCC2
Return: > 25 µM

* * *

Tested on: NCI-H23 lung
assay-comment: NCI tumour cell line growth inhibition, 48 h
experimental-endpoint: TGI

Enquiry: Reported TGI for COc1cc2c(cc1OC)C1(c3ccccc3)CN(C2)Cc2cc(OC)c(OC)cc21 : what is it?
Return: 68.3 µM

Enquiry: Record request: TGI value, item O=C(c1cccs1)c1c(C(F)(F)F)n([O-])c2ccc(F)cc2[n+]1=O
Return: 2.6 µM

Enquiry: Which measured TGI value corresponds to CCOc1ccc(/C=C/[N+](=O)[O-])cc1 ?
Return: > 100 µM

Enquiry: Recorded TGI for O=c1[nH]c(SCc2c(Cl)c(Cl)c(Cl)c(Cl)c2Cl)nc(=S)[nH]1 , please?
Return: > 100 µM

Enquiry: Endpoint output: TGI of O=P1(Oc2ccc(Cl)cc2)OCCS1 (stereo not drawn) . Value?
Return: > 100 µM

Enquiry: # lookup: TGI of CC(C)C(=O)/C=C/c1ccc(Cl)cc1
Return: 44.7 µM

Enquiry: Which TGI value belongs to COc1ccc([N-]/C(=N\n2c(=O)c(C)nn(C)c2=S)N(c2ccc(OC)cc2)c2nn3c(=O)c(C)n[n+](C)c3s2)cc1 ?
Return: > 100 µM

Enquiry: Query: TGI; subject: COc1ccc(C2ON(c3ccccn3)CC=C2C)cc1 (stereo not drawn)
Return: > 100 µM

Enquiry: Can you share its TGI? I mean this compound: CCOC(=O)c1cc(C2CCN(Cc3ccccc3)C2=O)c(C(=O)C(=[N+]=[N-])C(C)=O)[nH]1 (stereo not drawn)
Return: > 100 µM

Enquiry: Quick check: TGI of O=c1cc(CC(O)(C(F)(F)Cl)C(F)(F)Cl)[nH]n1-c1ccccc1 ?
Return: > 100 µM

Enquiry: Name the recorded TGI for C[C@]12C=CC(=O)C=C1CC[C@@H]1[C@@H]2C(=O)C[C@@]2(C)[C@H]1CC[C@]2(O)C(=O)CO .
Return: > 100 µM

Enquiry: What value of TGI has been recorded for this entry: COc1cc(C(N)=O)cc(NC(=O)/C=C/c2ccccc2)c1OC
Return: > 100 µM

Enquiry: Request the reported TGI associated with COc1cc([C@@H]2c3cc4c(cc3[C@@H](O[C@@H]3O[C@@H]5CO[C@@H](c6cccs6)O[C@H]5[C@H](O)[C@H]3O)[C@H]3COC(=O)[C@H]23)OCO4)cc(OC)c1O
Return: 2.6 µM

Enquiry: I would be grateful if you could share the reported TGI for C=C(C)[C@@]1(O)CCC[C@H]1NC(=O)OC(C)(C)C .
Return: > 100 µM

Enquiry: Given the compound CC1OC(OC2C(O)COC(OC3C(C)OC(OC4C(OC(=O)[C@]56CCC(C)(C)C[C@@H]5C5=CCC7[C@@]8(C)C[C@H](O)[C@H](OC9OC(CO)C(O)C(OC%10OC(CO)C(O)C(O)C%10O)C9O)[C@@](C)(CO)[C@@H]8CC[C@@]7(C)[C@]5(C)CC6)OCC(O)C4O)C(O)C3OC3OCC(O)C(O)C3O)C2O)C(O)C(O)C1O (stereo partly drawn) , what is its reported TGI?
Return: 10.4 µM

Enquiry: Returns the measured TGI for the input compound. Input: O=[N+]([O-])c1cccc2nc3ccccc3c(NCCCN3CCOCC3)c12
Return: 0.0418 µM

Enquiry: // TGI lookup, key: CN1C2C=C(c3ccccc3)CC1CC2 (stereo not drawn)
Return: > 100 µM

Enquiry: I have this compound here, CCOP(=O)(OCC)C(Cc1ccc(OC)c(OC)c1)N=C(c1ccccc1)c1ccccc1 (stereo not drawn) , and I need its recorded TGI.
Return: > 100 µM

Enquiry: So what's the measured TGI for this one? CN(c1ccccc1)C1C(=O)N(c2ccccc2)C1/C=C/c1ccccc1 (stereo not drawn)
Return: > 100 µM

Enquiry: Name the reported TGI value associated with the compound O=C1CN2C(Cl)(Cl)C2(c2ccccc2)c2cc(Cl)ccc2N1CC(F)(F)F (stereo not drawn)
Return: 70.1 µM

Enquiry: If you can, please state the reported TGI value of C=C1Oc2nc3ccccc3c(=O)n2C1(C)C .
Return: > 100 µM

Enquiry: Any idea what its TGI is? The compound is CN(C)CCCNc1nnc(NCCCN(C)C)c2c(=O)c3sccc3[nH]c12
Return: > 100 µM

Enquiry: Please report the recorded TGI for CCN1CC2=C(NC(=S)NC2c2cc(OC)c(OC)c(OC)c2)/C(=C/c2cc(OC)c(OC)c(OC)c2)C1 (stereo not drawn) .
Return: > 100 µM

* * *

Tested on: BT-549 breast
assay-comment: NCI tumour cell line growth inhibition, 48 h; in the data active = GI50 below about 0.43 µM; inactive = the rest
Hi! Could you answer with just one of these? active, inactive

Enquiry: Outcome? CC(=O)OCC1OC(OC2=C(CC=C(Cl)Cl)C(=O)c3ccccc3C2=O)C(OC(C)=O)C(OC(C)=O)C1OC(C)=O (configuration not stated)
Return: inactive

Enquiry: Which outcome was assigned to COc1cc2c3c(n(CCN(C)C)c(=O)c2cc1OC)-c1cc2c(cc1C3=O)OCO2 in this test?
Return: inactive

Enquiry: Please share the test call associated with C/C(=C\CCc1ccoc1)CC/C=C(\C)CCCN1CCC(CO)CC1 .
Return: inactive

Enquiry: Record request — test call for OC(COc1cccc2ccccc12)CN1CCN(c2ccccc2)CC1 (configuration not stated)
Return: inactive

Enquiry: State the result this test recorded for COC(=O)[C@@]1(C)CC[C@]2(C)CC[C@]3(C)C4=CC=C5C(=CC(=O)C(O)=C5C)[C@]4(C)CC[C@@]3(C)[C@@H]2C1 .
Return: active

Enquiry: Just curious, what result did Cc1nc(/N=C(\N)NC(=O)Nc2ccccc2Cl)sc1C get here?
Return: inactive

Enquiry: # lookup: test call for Oc1cc(O)c2c(=S)cc(-c3ccc(Cl)cc3)oc2c1
Return: inactive

* * *

Test system: MALME-3M melanoma
assay-comment: NCI tumour cell line growth inhibition, 48 h
Outcome: met for TGI of at least 30 µM; not met for anything lower.

Enquiry: Is TGI for CC1OC(OC2CC(O)C3(CO)C4C(O)CC5(C)C(C6=CC(=O)OC6)CCC5(O)C4CCC3(O)C2)C(O)C(O)C1O (stereo unspecified) at or above 30 µM?
Return: not met

Enquiry: Assess whether reported TGI for O=[N+]([O-])c1cccc2nc3ccccc3c(NCCCN3CCOCC3)c12 sits at 30 µM or higher.
Return: not met

Enquiry: Does TGI meet or surpass 30 µM for CC1=CCC[C@@H]2[C@@](C)(Cc3cc(O)ccc3O)[C@H](C)CC[C@@]12C ?
Return: met

Enquiry: Identify whether the reported TGI of the following compound is 30 µM or greater: CN(C)CCCNc1nnc(NCCCN(C)C)c2c(=O)c3sccc3[nH]c12
Return: met

Enquiry: In plain terms: is recorded TGI at least 30 µM for c1ccc2sc(C3(N4CCCCC4)CCCCCC3)cc2c1 ?
Return: met

Enquiry: # check: TGI of COC(=O)[C@H](CC(C)C)NC(=O)NC(=O)NC(=O)CI is greater than or equal to 30 µM
Return: not met

Enquiry: Hello, I need to know if COc1cccc(C2C3=C(COC3=O)N(CCO)c3cc4c(cc32)OCCO4)c1 (stereo unspecified) has measured TGI not below 30 µM. Thanks!
Return: met

Enquiry: Is reported TGI greater than or equal to 30 µM here: COc1ccc(C2=C(c3cc(OC)c(OC)c(OC)c3)C(=O)CC2)cc1
Return: met

Enquiry: Reported TGI reaches at least 30 µM for Cc1ccc2[nH]c3[nH]c(=O)[nH]c(=O)c3c2c1 ?
Return: met

Enquiry: I'd appreciate it if you could say whether O=C(O)c1cc(=O)[nH]c(=S)[nH]1 has TGI at least equal to 30 µM.
Return: met
